target: human H3 receptor (Homo sapiens, UniProt Q9Y5N1); construct: expressed in transfected cells; assay: Human H3 radioligand binding ([3H]-N-alpha-methylhistamine, SPA); details: human H3 binding, Table D; read-out: Human H3 Ki
Sequence (Q9Y5N1 whole entry): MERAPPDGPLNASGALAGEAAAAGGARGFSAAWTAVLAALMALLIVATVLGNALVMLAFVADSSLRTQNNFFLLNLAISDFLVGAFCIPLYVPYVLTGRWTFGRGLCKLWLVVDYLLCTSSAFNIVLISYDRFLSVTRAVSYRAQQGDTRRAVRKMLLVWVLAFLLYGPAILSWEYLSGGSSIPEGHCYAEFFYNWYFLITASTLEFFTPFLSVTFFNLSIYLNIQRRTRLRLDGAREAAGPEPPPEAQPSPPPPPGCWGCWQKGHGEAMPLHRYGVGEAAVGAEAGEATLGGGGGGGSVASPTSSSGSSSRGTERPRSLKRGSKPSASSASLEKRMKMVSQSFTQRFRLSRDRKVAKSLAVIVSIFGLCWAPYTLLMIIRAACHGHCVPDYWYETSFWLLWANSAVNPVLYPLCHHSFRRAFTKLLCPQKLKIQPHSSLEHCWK
PROPERTY: Ki

Record excerpt, results attached:
Could you share what Ki was measured for CN(C)C(=O)C1CCCN(c2ccc3c(c2)COC2(CCN(C4CCC4)CC2)O3)C1 (stereo not shown) [Example 612] , tested on human H3 receptor (Homo sapiens, UniProt Q9Y5N1)?
< 200 nM

// map CCS(=O)(=O)c1ccc(-c2ccc3c(c2)COC2(CCN(C4CCC4)CC2)O3)s1 [Example 661] to recorded Ki (system: human H3 receptor (Homo sapiens, UniProt Q9Y5N1))
< 200 nM

Notebook entry, human H3 receptor (Homo sapiens, UniProt Q9Y5N1) assay: Ki of Cc1nnc(COc2ccc3c(c2)CCC2(CCN(C4CCC4)CC2)O3)o1 [Example 615] = ?
< 200 nM

Hi! What's the reported Ki for O=C(O)c1ccc(-c2ccc3c(c2)COC2(CCN(C4CCC4)CC2)O3)cc1 [Example 668] on human H3 receptor (Homo sapiens, UniProt Q9Y5N1)?
< 200 nM

Please tell me: Ki of COc1nc(C)c(-c2ccc3c(c2)COC2(CCN(C4CCC4)CC2)O3)cc1C#N [Example 796] , system human H3 receptor (Homo sapiens, UniProt Q9Y5N1)?
< 200 nM

// next entry
So what Ki did CN(C)C(=O)C1CC(N2CCC3(CC2)OCc2cc(-c4ccc(=O)[nH]c4)ccc2O3)C1 (stereo not shown) [Example 735] get with human H3 receptor (Homo sapiens, UniProt Q9Y5N1)?
> 1000 nM

====

PROPERTY: melting point

Take a look at these entries with their results.
melting point for CN(C)C(=O)C1CCCN(c2ccc3c(c2)COC2(CCN(C4CCC4)CC2)O3)C1 (stereo not shown) ?
51.2 to 54.2 °C

Sample CC(=O)N(Cc1cccs1)c1ccc2c(c1)COC1(CCN(C3CCC3)CC1)O2 — what was its melting point?
119 to 120 °C

For the compound OC(c1ccncc1)c1ccc2c(c1)COC1(CCN(C3CCC3)CC1)O2 (stereo not shown) , what melting point is on record?
69 to 72 °C

More entries:
For the compound CC(C)NC(=O)c1ccc(-c2ccc3c(c2)CCC2(CCN(C4CCC4)CC2)O3)cc1 , what melting point is on record?
191 to 192 °C

What does the record list as melting point for COc1ccc(-c2ccc3c(c2)COC2(CCN(C4CCOC4)CC2)O3)cn1 (stereo not shown) ?
139 to 141 °C

Would you kindly share the measured melting point for O=C(O)C1CCCN(c2ccc3c(c2)COC2(CCN(C4CCC4)CC2)O3)C1 (stereo not shown) ?
84 to 86.4 °C

// lookup melting point for O=C(c1ccc(-c2ccc3c(c2)CCC2(CCN(C4CCC4)CC2)O3)cc1F)N1CC[C@H](O)C1
78 to 80 °C

Given c1nc(-c2ccc3c(c2)COC2(CCN(C4CCC4)CC2)O3)cs1 , state its recorded melting point.
165 to 166 °C

Fill blank: measured melting point of the compound CN(C)C(=O)c1ccc(Nc2ccc3c(c2)COC2(CCN(C4CCC4)CC2)O3)cc1 is ____.
66 to 74 °C

Fill blank: measured melting point of the compound FC1(F)CCN(c2ccc3c(c2)CCC2(CCN(C4CCC4)CC2)O3)C1 is ____.
> 275 °C (dec.)

Need melting point, item Cn1cc2c(n1)CCN(c1ccc3c(c1)CCC1(CCN(C4CCC4)CC1)O3)C2
132 to 134 °C

# query: melting point of entry Cn1cc2c(n1)CCC(c1ccc3c(c1)CCC1(CCN(C4CCC4)CC1)O3)=C2
205 to 208 °C

====

A collection of compounds and their measured melting point

Looking for the measured melting point of CN(C)C(=O)N1CCN(c2ccc3c(c2)COC2(CCN(C4CCC4)CC2)O3)CC1 , can you help?
153 to 155 °C

Look up melting point for this compound: COc1ccncc1-c1ccc2c(c1)COC1(CCN(C3CCC3)CC1)O2
58 to 60 °C

Would you kindly share the measured melting point for O=C(c1ccc(-c2ccc3c(c2)COC2(CCN(C4CCC4)CC2)O3)cn1)N1CC[C@@H](O)C1 ?
100 to 101 °C

Given the compound c1cc2c(cc1N1CCC3(CC1)OCCO3)CCC1(CCN(C3CCC3)CC1)O2 , what is its reported melting point?
135 to 137 °C

Entry under review: COCCNC(=O)c1ccc(-c2ccc3c(c2)CCC2(CCN(C4CCC4)CC2)O3)cn1 . Reported melting point?
218 to 219 °C

Look at this compound and give its reported melting point. CC(C)n1cc(-c2ccc3c(c2)COC2(CCN(C4CCC4)CC2)O3)ccc1=O
176 to 177 °C

I would be grateful if you could share the reported melting point for FC1(F)CCN(c2ccc3c(c2)CCC2(CCN(C4CCC4)CC2)O3)CC1 .
> 283 °C (dec.)

Turning to the following compound.
Bench note: what melting point did COCCNC(=O)c1ccc(Oc2ccc3c(c2)CCC2(CCN(C4CCC4)CC2)O3)nc1 show?
235 to 237 °C

====

PROPERTY: melting point

Sample answers from the record:
Which melting point value is on record for COc1cc(-c2ccc3c(c2)COC2(CCN(C4CCC4)CC2)O3)c(F)cn1 [Example 754] ?
135 to 136 °C

Give its melting point value. Item: O=C(c1ccc(-c2ccc3c(c2)CCC2(CCN(C4CCC4)CC2)O3)cc1F)N1CCC(O)CC1 [Example 240]
102.8 to 104.6 °C

What value of melting point has been reported for the following molecule? COCCN1CC(COc2ccc3c(c2)CCC2(CCN(C4CCC4)CC2)O3)CC1=O (centres unmarked) [Example 515]
194 to 196 °C

Bench note: what melting point did C=CCOC1(c2ccc3c(c2)COC2(CCN(C4CCC4)CC2)O3)CC(C(=O)N2CCCC2)C1 (centres unmarked) [Example 561] show?
49 to 51 °C

Any idea what its melting point is? The molecule is CN(c1ccc2c(c1)COC1(CCN(C3CCC3)CC1)O2)c1ccccn1 [Example 144]
216 to 220 °C

---
Which value of melting point has been reported for O=C(NC1CCN(c2ccc3c(c2)COC2(CCN(C4CCC4)CC2)O3)CC1)N1CCCC1 [Example 319] in the records?
210.2 to 212.6 °C

GET /values?readout=melting point&item= O=S(=O)(N1CCN(c2ccc3c(c2)COC2(CCN(C4CCC4)CC2)O3)CC1)C(F)(F)F [Example 299]
154.6 to 156.4 °C

Request the reported melting point associated with Cc1nnc(CCc2ccc3c(c2)COC2(CCN(C4CCC4)CC2)O3)o1 [Example 673]
87 to 89 °C

What value of measured melting point is listed for COCCNC(=O)CCc1ccc2c(c1)COC1(CCN(C3CCC3)CC1)O2 [Example 644] ?
68 to 70 °C

Fill in the blank: the reported melting point of CN(C)C(=O)c1cccc(COc2ccc3c(c2)CCC2(CCN(C4CCC4)CC2)O3)n1 [Example 670] is ____.
167 to 170 °C

If you can, please state the reported melting point value of Cc1nnc(C2CC=C(c3ccc4c(c3)COC3(CCN(C5CCC5)CC3)O4)CC2)o1 (centres unmarked) [Example 689] .
76.4 to 78.4 °C

Quick check: melting point of COCc1cc(-c2ccc3c(c2)COC2(CCN(C4CCC4)CC2)O3)cnc1OC [Example 804] ?
257 °C

Reported melting point for CC(C)(C)N1CCC2(CC1)OCc1cc(-c3ccc(=O)[nH]c3)ccc1O2 [Example 733] : what is it?
241 to 243 °C

Which melting point value belongs to O=C(Nc1ccc(F)cc1)Nc1ccc2c(c1)COC1(CCN(C3CCC3)CC1)O2 [Example 248] ?
237 to 238 °C

What measured melting point goes with O=S1(=O)CCC(O)(c2ccc3c(c2)COC2(CCN(C4CCC4)CC2)O3)CC1 [Example 517] ?
240 to 241 °C

Which melting point value belongs to Cc1noc(C2CCN(c3ccc4c(c3)COC3(CCN(C5CCC5)CC3)O4)CC2)n1 [Example 628] ?
125 to 126.2 °C

Give the measured melting point of O=C(Nc1ccc2c(c1)COC1(CCN(C3CCC3)CC1)O2)N1CCOCC1 [Example 165] .
238 to 240 °C

====

melting point by entry:

Worked cases, melting point given:
melting point lookup needed for CC(C)NC(=O)c1ccc(-c2ccc3c(c2)CCC2(CCN(C4CCC4)CC2)O3)cc1Cl , thanks.
155 to 156 °C

For Cc1cc(C(=O)Nc2ccc3c(c2)COC2(CCN(C4CCC4)CC2)O3)cc(Cl)n1 , what is its reported melting point?
179 to 180 °C

I am curious: what melting point value has been reported for COc1cccc(N2CCN(c3ccc4c(c3)CCC3(CCN(C5CCC5)CC3)O4)CC2)n1 ?
243 to 245 °C

Record request: melting point value, item Fc1ncccc1-c1ccc2c(c1)COC1(CCN(C3CCC3)CC1)O2
95 to 100 °C

May I ask what melting point has been recorded for O=C(NC[C@@H]1CCCO1)c1ccc(-c2ccc3c(c2)COC2(CCN(C4CCC4)CC2)O3)cc1Cl ?
159 to 161 °C

Please report the recorded melting point for O=C(N1CCCC1)N1CCN(c2ccc3c(c2)COC2(CCN(C4CCC4)CC2)O3)CC1 .
132 to 135 °C

Fill in: melting point of c1cn2cc(-c3ccc4c(c3)COC3(CCN(C5CCC5)CC3)O4)ccc2n1 is ___
64.5 to 66 °C

What does the record list as melting point for Cc1noc(COc2ccc3c(c2)CCC2(CCN(C4CCC4)CC2)O3)n1 ?
95 to 96 °C

Others:
Fill in: melting point of COCC(C)(C)NC(=O)c1ccc(-c2ccc3c(c2)CCC2(CCN(C4CCC4)CC2)O3)cc1 is ___
264 to 266 °C

For the compound shown here, CC(C)Oc1cc(-c2ccc3c(c2)COC2(CCN(C4CCC4)CC2)O3)c(Cl)cn1 , give the reported melting point.
131 to 132 °C

Record request: melting point value, item COc1ccc(/C=C/c2ccc3c(c2)COC2(CCN(C4CCC4)CC2)O3)cn1
144 to 146 °C

Look up melting point for this compound: CCOC(=O)c1cc(=O)n(C)cc1-c1ccc2c(c1)COC1(CCN(C3CCC3)CC1)O2
71 to 74 °C

Would you kindly share the measured melting point for c1cc2c(cc1N1CCCC1)CCC1(CCN(C3CCC3)CC1)O2 ?
> 275 °C (dec.)

Query (compound): NC(=O)c1ccc(Oc2ccc3c(c2)CCC2(CCN(C4CCC4)CC2)O3)nc1 ; field requested: melting point
191 to 193 °C

Could you tell me which melting point is on file for O=C(c1ccc(-c2ccc3c(c2)COC2(CCN(C4CCC4)CC2)O3)cc1)N1CCCCC1 ?
59 to 62 °C

Any idea what its melting point is? The compound is Cc1c(-c2ccc3c(c2)COC2(CCN(C4CCC4)CC2)O3)cn(C(C)C)c(=O)c1C
89 to 92 °C

Which melting point value is on record for COCCNC(=O)c1ccc(-c2ccc3c(c2)COC2(CCN(C4CCC4)CC2)O3)cc1 ?
145 to 147 °C
